LD50 at 168 h for assorted compounds
# Procedure Details: orientative acute toxicity, single oral administration, mice
# Measurement Setup: in vivo, mouse, same procedure

GET /values?readout=LD50 at 168 h&item= COc1ccc2c(c1)CCC(Cn1ccnc1)=C2
< 200 mg/kg

Continuing:
GET /values?readout=LD50 at 168 h&item= C1=C(Cn2ccnc2)CCc2ccccc21
< 200 mg/kg
